Assay: Metabolite profile in rat liver
Type: in vivo, male Sprague-Dawley rats
Details: group 1 (IV dose) pooled liver, 2 h
measurementKind: % AD (% AD)

Below, 2 compounds whose answers are already recorded.
compound	quantityUnit	% AD
C[C@@]1(O)[C@H](O)[C@@H](COP(=O)(O)OP(=O)(O)OP(=O)(O)O)O[C@H]1n1cnc2c(=O)[nH]c(N)nc21	% AD	0.05
C[C@@]1(O)[C@H](O)[C@@H](COP(=O)(O)OP(=O)(O)O)O[C@H]1n1cnc2c(=O)[nH]c(N)nc21	% AD	3.35

1 = C[C@@]1(O)[C@H](O)[C@@H](COP(=O)(O)O)O[C@H]1n1cnc2c(=O)[nH]c(N)nc21
2 = C[C@@]1(O)[C@H](O)[C@@H](CO)O[C@H]1n1cnc2c(=O)[nH]c(N)nc21 [2′-C-methyl guanosine, 9-(2-C-methyl-β-D-ribofuranosyl)guanine, reference compound]
Lower % AD: 1 or 2 ? Output the label that corresponds to your choice.
2

* * *

Assay: In vitro intracellular half-life of 2′-C-methyl guanosine-5′-triphosphate (Compound 7) in human primary hepatocytes
Type: in vitro ADME
Settings: human, primary hepatocytes (cellular extracts), in vitro intracellular t1/2 of Compound 7, human hepatocytes Hu775; after 24 h incubation with 10 μM [^14C]-Compound 1; linear regression
measurementKind: half-life at 10 μM (h)
Number only, in h; omit the unit.

For `C[C@@]1(O)[C@H](O)[C@@H](COP(=O)(O)OP(=O)(O)OP(=O)(O)O)O[C@H]1n1cnc2c(=O)[nH]c(N)nc21` , what is its reported half-life at 10 μM?
17.4

* * *

Experiment: Metabolite profile in rat liver
Assay type: in vivo, male Sprague-Dawley rats
Conditions: group 1 (IV dose) pooled liver, 2 h (Table 56)
Description: Homogenates were prepared on dry ice in 70% methanol-30% water containing 20 mM EDTA and 20 mM EGTA (about 1× (w/v) weight of the liver) and were stored frozen. […] The supernatant was transferred to a tube and total volume was measured. […] Radioactivity of each supernatant was determined by LSC of duplicate aliquots (100 μL each) for extraction recovery. […] Duplicate aliquots of the reconstituted samples were analyzed by LSC. Each sample was analyzed by HPLC method 2. […]
measurementKind: % HPLC (percent of HPLC peak area in the sample extract) (%)

a = C[C@@]1(O)[C@H](O)[C@@H](CO)O[C@H]1n1cnc2c(=O)[nH]c(N)nc21 [2′-C-methyl guanosine, 9-(2-C-methyl-β-D-ribofuranosyl)guanine, reference compound]
b = C[C@@]1(O)[C@H](O)[C@@H](COP(=O)(O)O)O[C@H]1n1cnc2c(=O)[nH]c(N)nc21
c = C[C@@]1(O)[C@H](O)[C@@H](COP(=O)(O)OP(=O)(O)O)O[C@H]1n1cnc2c(=O)[nH]c(N)nc21
d = C[C@@]1(O)[C@H](O)[C@@H](COP(=O)(O)OP(=O)(O)OP(=O)(O)O)O[C@H]1n1cnc2c(=O)[nH]c(N)nc21
Rank order required: % HPLC (percent of HPLC peak area in the sample extract), descending. Would you mind listing the labels in the order requested?
b, c, a, d

* * *

System: human primary hepatocytes
Assay: Metabolic disposition of [^14C]-Compound 1 and [^14C]-2′-C-methyl guanosine in human primary hepatocytes (incubation medium, cellular extracts, nucleotide levels)
Type: in vitro ADME
Conditions: human hepatocytes (Hu775), 1 μM [^14C]-Compound 1, 24 h
measurementKind: metabolites observed in cellular extracts (% of total radioactivity) (%)

Answered examples (2):
compound	measured
C[C@@]1(O)[C@H](O)[C@@H](CO)O[C@H]1n1cnc2c(=O)[nH]c(N)nc21 [2′-C-methyl guanosine, 9-(2-C-methyl-β-D-ribofuranosyl)guanine, reference compound]	9.05
CC(C)(CO)C(=O)SCCOP(=O)(NCc1ccccc1)OC[C@H]1O[C@@H](n2cnc3c(=O)[nH]c(N)nc32)[C@](C)(O)[C@@H]1O (mixture of isomers) [Compound 1]	2.78

a = C[C@@]1(O)[C@H](O)[C@@H](COP(=O)(O)OP(=O)(O)O)O[C@H]1n1cnc2c(=O)[nH]c(N)nc21 [Compound 6]
b = C[C@@]1(O)[C@H](O)[C@@H](COP(=O)(O)O)O[C@H]1n1cnc2c(=O)[nH]c(N)nc21 [Compound 5]
c = C[C@@]1(O)[C@H](O)[C@@H](COP(=O)(O)OP(=O)(O)OP(=O)(O)O)O[C@H]1n1cnc2c(=O)[nH]c(N)nc21 [Compound 7]
Reorder the items by metabolites observed in cellular extracts (% of total radioactivity), least to greatest. Labels, ranked as asked.
b, a, c
